Parameter MIC: see the listing below.
test system: Klebsiella 63; test: MIC, liquid medium test tube series dilution test; assay type: cell-based; conditions: Klebsiella 63, 24 hours, 37°C

Below, each entry is followed by its recorded MIC result.
C=CCN(C(=O)NC(C(=O)N[C@@H]1C(=O)N2[C@@H]1SC(C)(C)[C@@H]2C(=O)O)c1cccs1)C(=O)c1ccccc1 (stereo partly drawn) :: 20-100 units/ml
CCC(=O)N(C)C(=O)N[C@@H](C(=O)N[C@@H]1C(=O)N2[C@@H]1SC(C)(C)[C@@H]2C(=O)O)c1ccccc1 :: 100-500 units/ml
CN(C(=O)Cc1ccc([N+](=O)[O-])cc1)C(=O)N[C@@H](C(=O)N[C@@H]1C(=O)N2[C@@H]1SC(C)(C)[C@@H]2C(=O)O)c1ccccc1 :: 20-100 units/ml
Cc1ccc(C(=O)N(C)C(=O)N[C@@H](C(=O)N[C@@H]2C(=O)N3[C@@H]2SC(C)(C)[C@@H]3C(=O)O)c2ccccc2)cc1 :: 12.5-25 units/ml

Let's switch to this compound now.
[Q] Can you look up the measured MIC of CCCN(C(=O)N[C@@H](C(=O)N[C@@H]1C(=O)N2[C@@H]1SC(C)(C)[C@@H]2C(=O)O)c1ccccc1)C(=O)c1ccc(OC)c([N+](=O)[O-])c1 for me?
[A] 100-500 units/ml

* * *

tested on: Klebsiella 63; assay: MIC, liquid medium test tube series dilution test; type: cell-based; conditions: Klebsiella 63, 24 hours, 37°C
MEASUREMENT_KIND: MIC (units/ml)
Express it in units/ml; write the number only.

[Q] Returns the measured MIC for the input molecule. Input: C=CCN(C(C)=O)C(=O)N[C@@H](C(=O)N[C@@H]1C(=O)N2[C@@H]1SC(C)(C)[C@@H]2C(=O)O)c1ccccc1 [Example 86]
[A] 50

[Q] Proceed to CC1(C)S[C@@H]2[C@H](NC(=O)C(NC(=O)N3CCNC3=O)c3ccc(Cl)cc3)C(=O)N2[C@H]1C(=O)O (some centres unmarked) [Example 48 A]
[A] 50

* * *

// reported MIC for each item listed
test system: E. coli 14; experiment: MIC, liquid medium test tube series dilution test; assay type: cell-based; settings: E. coli 14, 24 hours, 37°C

The following molecules have reported results that may help.
CCCCCCCCCCCCCCCCCC(=O)N(C)C(=O)N[C@@H](C(=O)N[C@@H]1C(=O)N2[C@@H]1SC(C)(C)[C@@H]2C(=O)O)c1ccccc1 :: > 400 units/ml
CN(C(=O)N[C@@H](C(=O)N[C@@H]1C(=O)N2[C@@H]1SC(C)(C)[C@@H]2C(=O)O)c1ccccc1)C(=O)c1cccc(Cl)c1 :: < 0.78 units/ml
CCCCOC(=O)N(C)C(=O)N[C@@H](C(=O)N[C@@H]1C(=O)N2[C@@H]1SC(C)(C)[C@@H]2C(=O)O)c1ccccc1 [Example 12] :: 6.3 units/ml
CN(C(=O)N[C@@H](C(=O)N[C@@H]1C(=O)N2[C@@H]1SC(C)(C)[C@@H]2C(=O)O)c1ccccc1)C(=O)c1cc(Cl)ccc1Cl :: < 0.8 units/ml
Cc1ccccc1C(=O)N(C)C(=O)N[C@@H](C(=O)N[C@@H]1C(=O)N2[C@@H]1SC(C)(C)[C@@H]2C(=O)O)c1ccccc1 :: 0.78 units/ml
CN(C(=O)N[C@@H](C(=O)N[C@@H]1C(=O)N2[C@@H]1SC(C)(C)[C@@H]2C(=O)O)c1ccccc1)C(=O)c1ccc(Cl)cc1 :: < 0.8 units/ml

[Q] Which MIC reading was recorded for the molecule CN(C(=O)C=Cc1ccccc1)C(=O)N[C@@H](C(=O)N[C@@H]1C(=O)N2[C@@H]1SC(C)(C)[C@@H]2C(=O)O)c1ccccc1 ?
[A] < 0.78 units/ml

[Q] Further, for C=CCN(C(C)=O)C(=O)N[C@@H](C(=O)N[C@@H]1C(=O)N2[C@@H]1SC(C)(C)[C@@H]2C(=O)O)c1ccccc1 [Example 1] ?
[A] 25 units/ml

* * *

Some molecules, each annotated with its measured MIC.
test system: Staph. aureus 1777 E; assay: MIC, liquid medium test tube series dilution test; assay type: cell-based, Staphylococcus aureus; conditions: 24 hours, 37°C

Study these solved cases before continuing.
CN(C(=O)N[C@@H](C(=O)N[C@@H]1C(=O)N2[C@@H]1SC(C)(C)[C@@H]2C(=O)O)c1ccccc1)C(=O)c1ccc(Cl)cc1 :: 20-100 units/ml
COC(=O)N(C)C(=O)N[C@H](C(=O)N[C@@H]1C(=O)N2[C@@H]1SC(C)(C)[C@@H]2C(=O)O)c1c(Cl)cccc1Cl :: 100-500 units/ml
CCC(=O)N(C)C(=O)N[C@@H](C(=O)N[C@@H]1C(=O)N2[C@@H]1SC(C)(C)[C@@H]2C(=O)O)c1ccccc1 :: 100-500 units/ml

Let us examine a further case.
[Q] Recorded MIC for COC(=O)N(C)C(=O)N[C@@H](C(=O)N[C@@H]1C(=O)N2[C@@H]1SC(C)(C)[C@@H]2C(=O)O)c1c(Cl)cccc1Cl , please?
[A] 100-500 units/ml

* * *

tested on: Staph. aureus 1777 E; experiment: MIC, liquid medium test tube series dilution test; format: cell-based, Staphylococcus aureus; details: 24 hours, 37°C
MEASUREMENT_KIND: MIC

Worked cases, MIC given:
CN(C(=O)C=Cc1cccc([N+](=O)[O-])c1)C(=O)N[C@@H](C(=O)N[C@@H]1C(=O)N2[C@@H]1SC(C)(C)[C@@H]2C(=O)O)c1ccccc1 [Example 131] :: 20-100 units/ml
CC(C)C(=O)N(C)C(=O)N[C@@H](C(=O)N[C@@H]1C(=O)N2[C@@H]1SC(C)(C)[C@@H]2C(=O)O)c1ccccc1 [Example 116] :: 100-500 units/ml

From here, focus on the item given below.
[Q] Given CN(C(=O)N[C@@H](C(=O)N[C@@H]1C(=O)N2[C@@H]1SC(C)(C)[C@@H]2C(=O)O)c1ccccc1)C(=O)c1ccccc1Cl [Example 107] , state its recorded MIC.
[A] 20-100 units/ml

* * *

test system: Psdm. aerug. Walter; assay: MIC, liquid medium test tube series dilution test; assay type: cell-based, Pseudomonas aerug.; conditions: 24 hours, 37°C
Listed next: entries and their corresponding MIC.

CN(C(=O)CCCl)C(=O)NC(C(=O)N[C@@H]1C(=O)N2[C@@H]1SC(C)(C)[C@@H]2C(=O)O)C1CC=CCC1 (stereo partly drawn) [Example 36] :: > 500 units/ml
C=CCN(C(=O)NC(C(=O)N[C@@H]1C(=O)N2[C@@H]1SC(C)(C)[C@@H]2C(=O)O)c1c(Cl)cccc1Cl)C(=O)c1ccccc1 (stereo partly drawn) [Example 15] :: > 500 units/ml
COC(=O)N(C)C(=O)NC(C(=O)N[C@@H]1C(=O)N2[C@@H]1SC(C)(C)[C@@H]2C(=O)O)c1ccc(OC)cc1 (stereo partly drawn) [Example 18] :: 100-500 units/ml
C=CCN(C(C)=O)C(=O)NC(C(=O)N[C@@H]1C(=O)N2[C@@H]1SC(C)(C)[C@@H]2C(=O)O)c1cccs1 (stereo partly drawn) [Example 17] :: 100-500 units/ml

[Q] Which measured MIC value corresponds to CN(C(=O)CCCCl)C(=O)NC(C(=O)N[C@@H]1C(=O)N2[C@@H]1SC(C)(C)[C@@H]2C(=O)O)c1cccs1 (stereo partly drawn) [Example 5] ?
[A] 20-100 units/ml

[Q] Lookup CN(C(=O)N[C@@H](C(=O)N[C@@H]1C(=O)N2[C@@H]1SC(C)(C)[C@@H]2C(=O)O)c1ccccc1)C(=O)c1cc(Cl)ccc1Cl [Example 111]
[A] 4-20 units/ml

* * *

Listed next: entries and their corresponding MIC.
tested on: Klebsiella 63; experiment: MIC, liquid medium test tube series dilution test; format: cell-based; details: Klebsiella 63, 24 hours, 37°C

The cases that follow already have their MIC on record.
C=CCN(C(C)=O)C(=O)NC(C(=O)N[C@@H]1C(=O)N2[C@@H]1SC(C)(C)[C@@H]2C(=O)O)c1cccs1 (some centres unmarked) [Example 17] :: 20-100 units/ml
CC1(C)S[C@@H]2[C@H](NC(=O)[C@H](NC(=O)N3CCCCCC3=O)c3ccccc3)C(=O)N2[C@H]1C(=O)O [Example 101 B] :: 100-500 units/ml
CCN(C(C)=O)C(=O)N[C@@H](C(=O)N[C@@H]1C(=O)N2[C@@H]1SC(C)(C)[C@@H]2C(=O)O)c1ccccc1 [Example 114] :: 100-500 units/ml
CCN(C(=O)N[C@@H](C(=O)N[C@@H]1C(=O)N2[C@@H]1SC(C)(C)[C@@H]2C(=O)O)c1ccccc1)C(=O)c1ccc(OC)c([N+](=O)[O-])c1 [Example 108] :: 100-500 units/ml

Please look at the following compound next.
[Q] What MIC value was documented for this compound, CCCCCCCCCCCCCCCCN(C(C)=O)C(=O)N[C@@H](C(=O)N[C@@H]1C(=O)N2[C@@H]1SC(C)(C)[C@@H]2C(=O)O)c1ccccc1 [Example 74] ?
[A] > 400 units/ml
